Assay: Affinity for cardiac tissue (radioactivity in heart and blood after intravenous 14C-labelled compound)
Format: in vivo, rats
Details: rat, 0.91 mg base/kg i.v., 2 hours
ENDPOINT NAME: µg equiv/g (µg equiv/g)
Report the figure in µg equiv/g without appending any unit label.

Looking up CC(=O)Oc1c(C)c(C)c2c(c1C)CCC(C)(CC[N+](C)(C)C)O2.Cc1ccc(S(=O)(=O)[O-])cc1 (stereo not shown) , I found its µg equiv/g recorded as 1.4

====

Test: Affinity for cardiac tissue (radioactivity in heart and blood after intravenous 14C-labelled compound)
Assay type: in vivo, rats
Details: rat, 0.91 mg base/kg i.v., 6 hours
ENDPOINT NAME: µg equiv/g (µg equiv/g)
Kindly provide the numeric value in µg equiv/g only, without the unit symbol.

In plain terms, CC(=O)Oc1c(C)c(C)c2c(c1C)CCC(C)(CC[N+](C)(C)C)O2.Cc1ccc(S(=O)(=O)[O-])cc1 (stereo not shown) has a documented µg equiv/g of 0.863

====

Experiment: Affinity for cardiac tissue (radioactivity in heart and blood after intravenous 14C-labelled compound)
Type: in vivo, rats
Conditions: rat, 0.91 mg base/kg i.v., 5 min
ENDPOINT NAME: µg equiv/mL (µg equiv/mL)
Your answer should be a plain number; it is taken to be in µg equiv/mL.

For reference, reported µg equiv/mL for CC(=O)Oc1c(C)c(C)c2c(c1C)CCC(C)(CC[N+](C)(C)C)O2.Cc1ccc(S(=O)(=O)[O-])cc1 (stereo not shown) stands at 0.434

====

Assay: Affinity for cardiac tissue (radioactivity in heart and blood after intravenous 14C-labelled compound)
Type: in vivo, rats
Details: rat, 0.91 mg base/kg i.v., 4 hours
ENDPOINT NAME: µg equiv/g

Form field µg equiv/g, entry CC(=O)Oc1c(C)c(C)c2c(c1C)CCC(C)(CC[N+](C)(C)C)O2.Cc1ccc(S(=O)(=O)[O-])cc1 (stereo not shown) : 1.25 µg equiv/g

====

Assay: Affinity for cardiac tissue (radioactivity in heart and blood after intravenous 14C-labelled compound)
Assay type: in vivo, rats
Settings: rat, 0.91 mg base/kg i.v., 30 min
ENDPOINT NAME: µg equiv/g (µg equiv/g)
Hi! Could you send only the number? It should be in µg equiv/g, unit omitted.

Lookup result for CC(=O)Oc1c(C)c(C)c2c(c1C)CCC(C)(CC[N+](C)(C)C)O2.Cc1ccc(S(=O)(=O)[O-])cc1 (stereo not shown) ; measured µg equiv/g: 1.91

====

Assay: Affinity for cardiac tissue (radioactivity in heart and blood after intravenous 14C-labelled compound)
Assay type: in vivo, rats
Conditions: rat, 0.91 mg base/kg i.v., 8 hours
ENDPOINT NAME: µg equiv/g
Include the unit after the number when you answer.

Record CC(=O)Oc1c(C)c(C)c2c(c1C)CCC(C)(CC[N+](C)(C)C)O2.Cc1ccc(S(=O)(=O)[O-])cc1 (stereo not shown) . Reported µg equiv/g: 0.652 µg equiv/g

====

Assay: Affinity for cardiac tissue (radioactivity in heart and blood after intravenous 14C-labelled compound)
Assay type: in vivo, rats
Conditions: rat, 0.91 mg base/kg i.v., 1 hour
ENDPOINT NAME: µg equiv/mL (µg equiv/mL)
A number alone suffices; assume µg equiv/mL.

µg equiv/mL for CC(=O)Oc1c(C)c(C)c2c(c1C)CCC(C)(CC[N+](C)(C)C)O2.Cc1ccc(S(=O)(=O)[O-])cc1 (stereo not shown) is 0.096

====

Assay: Affinity for cardiac tissue (radioactivity in heart and blood after intravenous 14C-labelled compound)
Assay type: in vivo, rats
Conditions: rat, 0.91 mg base/kg i.v., 4 hours
ENDPOINT NAME: µg equiv/mL (µg equiv/mL)
// return numeric value only (unit: µg equiv/mL, not printed)

Lab note: CC(=O)Oc1c(C)c(C)c2c(c1C)CCC(C)(CC[N+](C)(C)C)O2.Cc1ccc(S(=O)(=O)[O-])cc1 (stereo not shown) [Example 9] gave µg equiv/mL of 0.054

====

Assay: Affinity for cardiac tissue (radioactivity in heart and blood after intravenous 14C-labelled compound)
Assay type: in vivo, rats
Conditions: rat, 0.91 mg base/kg i.v., 15 min
ENDPOINT NAME: µg equiv/g (µg equiv/g)
Your answer should be a plain number; it is taken to be in µg equiv/g.

Form field µg equiv/g, entry CC(=O)Oc1c(C)c(C)c2c(c1C)CCC(C)(CC[N+](C)(C)C)O2.Cc1ccc(S(=O)(=O)[O-])cc1 (stereo not shown) [Example 9] : 1.73

====

Assay: Affinity for cardiac tissue (radioactivity in heart and blood after intravenous 14C-labelled compound)
Assay type: in vivo, rats
Settings: rat, 0.91 mg base/kg i.v., 2 hours
ENDPOINT NAME: µg equiv/mL (µg equiv/mL)
Value expressed in µg equiv/mL; do not type the unit.

The measured µg equiv/mL associated with CC(=O)Oc1c(C)c(C)c2c(c1C)CCC(C)(CC[N+](C)(C)C)O2.Cc1ccc(S(=O)(=O)[O-])cc1 (stereo not shown) reads 0.086
